Each entry below carries its measured IC50, system: UniProt:P20309.

MOLECULE | ENDPOINT_RESULT
O=C(N[C@H]1CCN(C(=O)COc2cccc([C@](O)(C(=O)OCC3CCN(Cc4ccccc4)CC3)c3ccccc3)c2)C1)c1ccc(CNC[C@H](O)c2ccc(O)c3[nH]c(=O)ccc23)cc1 | 0.3 to 3 nM

Using the record for O=C(c1ccc(C(=O)N2CCC(COc3cccc([C@](O)(C(=O)OCC4CCN(Cc5ccccc5)CC4)c4ccccc4)c3)CC2)s1)N1CCC(CNC[C@H](O)c2ccc(O)c3[nH]c(=O)ccc23)CC1 , report its IC50.
< 0.3 nM

====

pIC50: −log10 of the molar value.
Each entry below carries its measured pIC50, system: Human M3 receptor (Homo sapiens).
Sequence (P20309 whole entry): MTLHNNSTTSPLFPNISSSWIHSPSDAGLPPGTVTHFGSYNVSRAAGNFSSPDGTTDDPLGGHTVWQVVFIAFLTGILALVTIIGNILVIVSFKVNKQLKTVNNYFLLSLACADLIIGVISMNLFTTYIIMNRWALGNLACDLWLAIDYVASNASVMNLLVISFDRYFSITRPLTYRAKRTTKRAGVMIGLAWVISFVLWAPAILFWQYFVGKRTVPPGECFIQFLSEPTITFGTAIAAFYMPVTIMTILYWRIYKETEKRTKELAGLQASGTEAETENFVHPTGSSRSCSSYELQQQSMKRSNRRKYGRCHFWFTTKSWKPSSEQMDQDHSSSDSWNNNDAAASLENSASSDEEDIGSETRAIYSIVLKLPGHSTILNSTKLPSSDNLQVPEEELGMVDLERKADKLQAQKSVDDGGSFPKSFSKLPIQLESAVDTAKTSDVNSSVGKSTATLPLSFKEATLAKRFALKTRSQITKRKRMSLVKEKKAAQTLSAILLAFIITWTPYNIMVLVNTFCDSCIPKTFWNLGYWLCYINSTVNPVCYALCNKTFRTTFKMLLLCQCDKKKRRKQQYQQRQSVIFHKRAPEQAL

Examples from the recorded data:
COMPOUND | pIC50
O=C(COc1cccc([C@](O)(C(=O)OCC2CCN(Cc3ccccc3)CC2)c2ccccc2)c1)N[C@H]1C[C@H](NC(=O)c2ccc(CNC[C@H](O)c3ccc(O)c4[nH]c(=O)ccc34)cc2Cl)C1 | > 9.52
O=C(COc1cccc([C@](O)(C(=O)OCC2CCN(Cc3ccccc3)CC2)c2ccccc2)c1)NCCNC(=O)c1ccc(CNC[C@H](O)c2ccc(O)c3[nH]c(=O)ccc23)cc1 | 8.52 to 9.52
O=C(c1ccc(CNC[C@H](O)c2ccc(O)c3[nH]c(=O)ccc23)cc1)N1C[C@@H]2CCN(C(=O)COc3cccc([C@](O)(C(=O)OCC4CCN(Cc5ccccc5)CC4)c4ccccc4)c3)[C@@H]2C1 | 8.52 to 9.52
O=C(COc1cccc([C@](O)(C(=O)OCC2CCN(Cc3ccccc3)CC2)c2ccccc2)c1)N1CCC2(CC1)CCN(C(=O)c1ccc(CCNC[C@H](O)c3ccc(O)c4[nH]c(=O)ccc34)cc1)CC2 | > 9.52
O=C(N[C@H]1C[C@H](NC(=O)c2ccc(COc3cccc([C@](O)(C(=O)OCC4CCN(Cc5ccccc5)CC4)c4ccccc4)c3)cc2)C1)c1ccc(CCNC[C@H](O)c2ccc(O)c3[nH]c(=O)ccc23)cc1 | 8.52 to 9.52

Now look at this one.
Using the record for COc1cc(C(=O)NCCCOc2cccc([C@](O)(C(=O)OCC3CCN(Cc4ccccc4)CC3)c3ccccc3)c2)c(F)cc1CNC[C@H](O)c1ccc(O)c2[nH]c(=O)ccc12 [Compound 32I] , report its pIC50.
> 9.52

Values from patent US9579314B2
